src = patent US8871753B2

Target: human JAK2 (a.a. 828-1132) (Homo sapiens)
Construct: JAK2 (a.a. 828-1132); His tag (N); made in house; host or cells: insect cells (baculovirus)
Sequence (O60674 828-1132): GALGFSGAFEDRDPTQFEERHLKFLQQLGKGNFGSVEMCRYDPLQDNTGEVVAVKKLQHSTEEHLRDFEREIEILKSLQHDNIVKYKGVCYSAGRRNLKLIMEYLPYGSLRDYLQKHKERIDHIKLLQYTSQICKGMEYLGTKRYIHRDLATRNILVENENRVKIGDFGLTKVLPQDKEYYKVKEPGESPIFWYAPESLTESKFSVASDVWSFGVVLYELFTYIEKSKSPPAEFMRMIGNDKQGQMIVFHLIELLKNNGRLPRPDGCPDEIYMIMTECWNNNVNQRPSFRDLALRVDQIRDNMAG
Experiment: In vitro JAK kinase assay (HTRF, phosphorylation of a biotinylated peptide), JAK2
Assay type: biochemical
Conditions: Table B1
Counter-ions that a name gives are not always drawn.
Would you kindly list log10(IC50) for each of these molecules?
Kindly note that the scale is log10 and the underlying IC50 is in nM.

Summary for this molecule, Cc1cnc(NC(=O)Nc2ccc3cc2CCc2cccc(c2)Nc2ncc(Cl)c(n2)N3)s1 [Example B248, trifluoroacetate] : log10(IC50) is 2.23

Entry O=C(Nc1ccc2cc1CCc1cccc(c1)Nc1ncc(Cl)c(n1)N2)c1ccno1 [Example B53, trifluoroacetate] , log10(IC50) reported as 0.36

# log10(IC50) (molecule: CN(C(=O)Nc1ccc2cc1CCc1cncc(c1)Nc1ncc(Cl)c(n1)N2)[C@H]1CCNC1 [Example B288, tris(trifluoroacetate)] ) is 2.26

Form: molecule = O=C(NCCNC(=O)c1ccccn1)Nc1ccc2cc1CCc1cccc(c1)Nc1ncc(Cl)c(n1)N2 [Example B190, trifluoroacetate] ; log10(IC50) = 1.00

Notebook: Brc1cnc2nc1Nc1cccc(c1)CCc1cccc(c1)N2 [Example B3, trifluoroacetate] , log10(IC50) read as 0.54

Form: molecule = Clc1cnc2nc1Nc1cc(cc(CN3CCN(Cc4ccc(Oc5ncccn5)cc4)CC3)c1)CCc1cccc(c1)N2 [Example B193, tris(trifluoroacetate)] ; log10(IC50) = 1.67

Record summary for O=C(Nc1ccc2cc1CCc1cccc(c1)Nc1ncc(Cl)c(n1)N2)N[C@H]1CCN(C(=O)c2ccno2)C1 [Example B230, trifluoroacetate] : reported log10(IC50) = 0.85

Looking up O=C(Nc1ccc2cc1CCc1cccc(c1)Nc1ncc(Cl)c(n1)N2)N1CCN(c2ccccn2)CC1 [Example B290, bis(trifluoroacetate)] , I see its log10(IC50) listed as 1.95

// recorded log10(IC50) for CC(C)(C)OC(=O)N1CC[C@H](NCc2ccc3cc2CCc2cccc(c2)Nc2ncc(Cl)c(n2)N3)C1 [Example B220, bis(trifluoroacetate)] : 1.08

Reported log10(IC50) for O=C(Nc1ccc(F)c(Cl)c1)c1cc2cc(c1)Nc1nc(ncc1Cl)Nc1cccc(c1)CC2 [Example B7, trifluoroacetate] was 2.85

O=C(Nc1ccc2cc1CCc1cccc(c1)Nc1ncc(Cl)c(n1)N2)NC1CCCC1 [Example B88, trifluoroacetate] has a reported log10(IC50) of 0.23

In plain terms, N#Cc1ccc(NC(=O)Nc2cc3cc(c2)Nc2nc(ncc2Cl)Nc2cccc(c2)CC3)cc1 [Example B212, trifluoroacetate] has a documented log10(IC50) of 2.38

GET /value?item= O=C(Nc1ccccc1)Nc1cc2cc(c1)Nc1nc(ncc1Cl)Nc1cccc(c1)CC2 [Example B202, trifluoroacetate] &field=log10(IC50) returns 1.75

molecule CC(C)(C)OC(=O)N1CCN(CCNC(=O)Nc2ccc3cc2CCc2cccc(c2)Nc2ncc(Cl)c(n2)N3)CC1 , log10(IC50) observed: 0.85
